// reported MIC per item
Tested on: Staphylococcus aureus
Experiment: Antibacterial activity against hospital-acquired methicillin-resistant Staphylococcus aureus 450/11 after 18 hrs by twofold serial agar dilution technique
Assay type: functional
Conditions: 450/11, 18 h
measured_property: MIC (µg/mL)

compound=CC[C@@H](C(=O)[C@@H](C)[C@@H](O)[C@H](C)[C@@H]1O[C@@H]([C@@H](CC)C(=O)NCCCN2CCCCC2)CC[C@@H]1C)[C@H]1O[C@]2(C=C[C@@H](O)[C@]3(CC[C@@](C)([C@H]4CC[C@](O)(CC)[C@H](C)O4)O3)O2)[C@H](C)C[C@@H]1C reading_unit=µg/mL observed_measurement=64
compound="CC[C@@H](C(=O)[C@@H](C)[C@@H](O)[C@H](C)[C@@H]1O[C@@H]([C@@H](CC)C(=O)O)CC[C@@H]1C)[C@H]1O[C@]2(C=C[C@@H](O)[C@]3(CC[C@@](C)([C@H]4CC[C@](O)(CC)[C@H](C)O4)O3)O2)[C@H](C)C[C@@H]1C [SALINOMYCIN]" reading_unit=µg/mL observed_measurement=2
compound="CC[C@@]1([C@@H]2O[C@@H]([C@H]3O[C@@](O)(CO)[C@H](C)C[C@@H]3C)C[C@@H]2C)CC[C@H]([C@]2(C)CC[C@]3(C[C@H](O)[C@@H](C)[C@@H]([C@@H](C)[C@@H](OC)[C@H](C)C(=O)O)O3)O2)O1 [MONENSIN]" reading_unit=µg/mL observed_measurement=2
compound=CC[C@@H](C(=O)[C@@H](C)[C@@H](O)[C@H](C)[C@@H]1O[C@@H]([C@@H](CC)C(=O)Nc2ccccc2)CC[C@@H]1C)[C@H]1O[C@]2(C=C[C@@H](O)[C@]3(CC[C@@](C)([C@H]4CC[C@](O)(CC)[C@H](C)O4)O3)O2)[C@H](C)C[C@@H]1C reading_unit=µg/mL observed_measurement=4

---

Test system: Pseudomonas aeruginosa
Assay: Antibacterial activity against Pseudomonas aeruginosa ATCC 27853 after 18 hrs by twofold serial agar dilution technique
Format: functional
Details: ATCC 27853, 18 h
// reported MIC per item
measured_property: MIC

compound_smiles=CC[C@@H](C(=O)[C@@H](C)[C@@H](O)[C@H](C)[C@@H]1O[C@@H]([C@@H](CC)C(=O)NCCc2c[nH]c3ccccc23)CC[C@@H]1C)[C@H]1O[C@]2(C=C[C@@H](O)[C@]3(CC[C@@](C)([C@H]4CC[C@](O)(CC)[C@H](C)O4)O3)O2)[C@H](C)C[C@@H]1C measured_property=MIC observed_measurement="≥ 256 µg/mL"
compound_smiles=CC[C@@H](C(=O)[C@@H](C)[C@@H](O)[C@H](C)[C@@H]1O[C@@H]([C@@H](CC)C(=O)NCCOCCOCCOC)CC[C@@H]1C)[C@H]1O[C@]2(C=C[C@@H](O)[C@]3(CC[C@@](C)([C@H]4CC[C@](O)(CC)[C@H](C)O4)O3)O2)[C@H](C)C[C@@H]1C measured_property=MIC observed_measurement="≥ 256 µg/mL"

---

// reported MIC per item
Tested on: Pseudomonas aeruginosa
Experiment: Antibacterial activity against Pseudomonas aeruginosa ATCC 15442 after 18 hrs by twofold serial agar dilution technique
Assay type: functional
Conditions: ATCC 15442, 18 h
measured_property: MIC

compound_smiles=CC[C@@H](C(=O)[C@@H](C)[C@@H](O)[C@H](C)[C@@H]1O[C@@H]([C@@H](CC)C(=O)NCc2ccccc2)CC[C@@H]1C)[C@H]1O[C@]2(C=C[C@@H](O)[C@]3(CC[C@@](C)([C@H]4CC[C@](O)(CC)[C@H](C)O4)O3)O2)[C@H](C)C[C@@H]1C target_under_test="Pseudomonas aeruginosa" measured_property=MIC observed_measurement="≥ 256 µg/mL"
compound_smiles=CCCCNC(=O)[C@H](CC)[C@H]1CC[C@H](C)[C@H]([C@@H](C)[C@H](O)[C@H](C)C(=O)[C@H](CC)[C@H]2O[C@]3(C=C[C@@H](O)[C@]4(CC[C@@](C)([C@H]5CC[C@](O)(CC)[C@H](C)O5)O4)O3)[C@H](C)C[C@@H]2C)O1 target_under_test="Pseudomonas aeruginosa" measured_property=MIC observed_measurement="≥ 256 µg/mL"

---

// reported MIC per item
Tested on: Staphylococcus aureus
Assay: Antibacterial activity against hospital-acquired methicillin-sensitive Staphylococcus aureus 449/11 after 18 hrs by twofold serial agar dilution technique
Type: functional
Conditions: 449/11, 18 h
measured_property: MIC (µg/mL)

compound_smiles=CC[C@@H](C(=O)[C@@H](C)[C@@H](O)[C@H](C)[C@@H]1O[C@@H]([C@@H](CC)C(=O)O)CC[C@@H]1C)[C@H]1O[C@]2(C=C[C@@H](O)[C@]3(CC[C@@](C)([C@H]4CC[C@](O)(CC)[C@H](C)O4)O3)O2)[C@H](C)C[C@@H]1C measured_property=MIC observed_measurement=1
compound_smiles=CC[C@@H](C(=O)[C@@H](C)[C@@H](O)[C@H](C)[C@@H]1O[C@@H]([C@@H](CC)C(=O)Nc2ccccc2)CC[C@@H]1C)[C@H]1O[C@]2(C=C[C@@H](O)[C@]3(CC[C@@](C)([C@H]4CC[C@](O)(CC)[C@H](C)O4)O3)O2)[C@H](C)C[C@@H]1C measured_property=MIC observed_measurement=2
compound_smiles=CC[C@@]1([C@@H]2O[C@@H]([C@H]3O[C@@](O)(CO)[C@H](C)C[C@@H]3C)C[C@@H]2C)CC[C@H]([C@]2(C)CC[C@]3(C[C@H](O)[C@@H](C)[C@@H]([C@@H](C)[C@@H](OC)[C@H](C)C(=O)O)O3)O2)O1 measured_property=MIC observed_measurement=2
compound_smiles=CC[C@@H](C(=O)[C@@H](C)[C@@H](O)[C@H](C)[C@@H]1O[C@@H]([C@@H](CC)C(=O)NCCCN2CCCCC2)CC[C@@H]1C)[C@H]1O[C@]2(C=C[C@@H](O)[C@]3(CC[C@@](C)([C@H]4CC[C@](O)(CC)[C@H](C)O4)O3)O2)[C@H](C)C[C@@H]1C measured_property=MIC observed_measurement=32
